The following compounds are listed with their measured CC50 at 72 h values.
assay: Cytotoxicity against human Huh7.5 cells assessed as reduction in cell viability after 72 hrs by MTT method; format: cell-based
Report as a plain number; the unit µM is understood.

{"Given smiles": "CC(=O)OC[C@H]1O[C@@H](Sc2ccc(NC(=O)[C@H]3O[C@@H](n4ccc(=O)[nH]c4=O)[C@H](O[Si](C)(C)C(C)(C)C)[C@@H]3O[Si](C)(C)C(C)(C)C)cn2)[C@H](OC(C)=O)[C@@H](OC(C)=O)[C@H]1OC(C)=O", "Observed property": "CC50 at 72 h", "Measurement units": "µM", "Recorded result": 173}
{"Given smiles": "CC(=O)OC[C@H]1O[C@@H](Sc2ccc(NC(=O)[C@H]3O[C@@H](n4ccc(=O)[nH]c4=O)[C@H](O)[C@@H]3O)cn2)[C@H](OC(C)=O)[C@@H](OC(C)=O)[C@@H]1OC(C)=O", "Observed property": "CC50 at 72 h", "Measurement units": "µM", "Recorded result": 402}
{"Given smiles": "CC(=O)OC[C@H]1O[C@@H](Sc2ccc(NC(=O)[C@H]3O[C@@H](n4ccc(=O)[nH]c4=O)[C@@H]4OC(C)(C)O[C@@H]43)cn2)[C@H](OC(C)=O)[C@@H](OC(C)=O)[C@H]1OC(C)=O", "Observed property": "CC50 at 72 h", "Measurement units": "µM", "Recorded result": 312}

Then this compound:
Asked: # CC50 at 72 h lookup, item CC(=O)OC[C@H]1O[C@@H](Sc2ccc(NC(=O)CCC(=O)OC[C@H]3O[C@@H](n4ccc(=O)[nH]c4=O)[C@@H]4OC(C)(C)O[C@@H]43)cn2)[C@H](OC(C)=O)[C@@H](OC(C)=O)[C@@H]1OC(C)=O
Given back: 328
